- study target: T1, human beta klotho expressed on cells (human, UniProt Q86Z14 1-1044)
- T1 construct: also called HuKLB overexpressing cells; Human KLB
- T1 sequence: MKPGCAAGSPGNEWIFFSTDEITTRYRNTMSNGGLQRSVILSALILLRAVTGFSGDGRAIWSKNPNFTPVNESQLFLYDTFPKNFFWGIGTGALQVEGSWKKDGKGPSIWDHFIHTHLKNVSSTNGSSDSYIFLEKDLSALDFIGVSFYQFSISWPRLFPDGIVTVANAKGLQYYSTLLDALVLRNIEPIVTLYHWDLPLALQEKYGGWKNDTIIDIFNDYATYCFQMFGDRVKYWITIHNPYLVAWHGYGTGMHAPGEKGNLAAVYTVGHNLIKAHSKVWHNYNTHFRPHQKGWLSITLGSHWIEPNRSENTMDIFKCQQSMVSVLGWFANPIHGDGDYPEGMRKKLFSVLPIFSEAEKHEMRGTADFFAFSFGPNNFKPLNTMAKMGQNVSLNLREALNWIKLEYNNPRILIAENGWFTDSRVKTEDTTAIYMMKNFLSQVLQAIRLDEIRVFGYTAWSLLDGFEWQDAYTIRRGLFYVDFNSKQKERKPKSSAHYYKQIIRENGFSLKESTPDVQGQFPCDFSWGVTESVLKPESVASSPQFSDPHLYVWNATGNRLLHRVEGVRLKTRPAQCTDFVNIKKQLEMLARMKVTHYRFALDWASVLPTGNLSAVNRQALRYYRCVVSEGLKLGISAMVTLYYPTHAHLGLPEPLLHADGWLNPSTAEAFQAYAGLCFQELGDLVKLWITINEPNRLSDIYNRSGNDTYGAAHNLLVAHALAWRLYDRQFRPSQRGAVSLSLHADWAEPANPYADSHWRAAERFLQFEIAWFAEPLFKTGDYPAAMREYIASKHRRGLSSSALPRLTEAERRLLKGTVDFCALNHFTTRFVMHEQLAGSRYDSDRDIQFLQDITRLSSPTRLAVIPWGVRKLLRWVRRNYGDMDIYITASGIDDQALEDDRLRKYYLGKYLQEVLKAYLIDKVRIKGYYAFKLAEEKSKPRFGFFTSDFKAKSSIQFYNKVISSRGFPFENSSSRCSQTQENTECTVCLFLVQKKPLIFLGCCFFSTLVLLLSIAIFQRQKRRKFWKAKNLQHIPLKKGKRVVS
- experiment notes: FACS competition on HuKLB-overexpressing cells; row antibody unlabelled; competitor 5H23-Alexa647 (labelled, EC10); MFI of the label
recorded endpoint: Mean Florescence Intensity (MFI)
The answer is to be given in MFI; state only the numeric part.

Request: Find the measured Mean Florescence Intensity (MFI) of antibody 1D19 (antibody, V domains shown, Murine monoclonal antibody) VH: QVQPQESGPELVKPGALVKISCKASGYTFTRYDINWMKQRPGQGLEWIGWIYPGDSSTKFNENFKDKATLTADKSSSTAYMQLSSLTSENSTVYFCARSDYYGSRSFTYWGQGTLVTVSA VL: DIVLTQSPASLAVSLGQRATISCRASKSVSTSGYSYMHWYQQKPGQPPKLLIYLASNLESGVPARFSGSGSGTDFTLNIHPVEEEDAATYYCQHSRELPYTFGGGTKLEIK and report it.
Result: 2.5
